System: NCI-H211 tumor spheroids, viability percent test/control
Test: Anticancer human tumor NCI-H211 cell line growth inhibition; active means viability on the fitted dose curve at most 10% of control; inactive means the rest;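 further: spheroids exposed to agents for seven days before readout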
Conditions: second compound 10 µM; first compound 0.0316 µM; spheroids with HUVEC and MSC
Lab note: assign the record to one of true (active), false (inactive)

Worked set:
COc1cc(C)[nH]c(=O)c1CN1CCc2c(Cl)cc(C(OC)C3COC3)c(Cl)c2C1=O (stereo unspecified) + Cn1nnc2c(C(N)=O)ncn2c1=O : false
CC(C)n1c(=O)n(C)c2cnc3cc(F)c(-c4ccc(OCCCN5CCCCC5)nc4)cc3c21 + Cn1nnc2c(C(N)=O)ncn2c1=O : false
[2H]c1nc(C)nc([2H])c1-c1cc(NC[C@@H](C)c2cccc3c(C(=O)NC)ccnc23)ncn1 + Cn1nnc2c(C(N)=O)ncn2c1=O : false
Cc1cc(C)c(CNC(=O)c2cc(-c3ccc(CN4CCOCC4)cc3)cc3c2cnn3C2CCCC2)c(=O)[nH]1 + Cn1nnc2c(C(N)=O)ncn2c1=O : false
COc1ccc([C@@H](O)c2cc(-c3ncnc4cc(N5CCOCC5)ccc34)c(F)cc2Cl)nn1 + Cn1nnc2c(C(N)=O)ncn2c1=O : false

## Task Entry CC1COCCN1c1cc(-c2ccnn2C)c2ccnc(-c3ccn[nH]3)c2n1 (stereo unspecified) + Cn1nnc2c(C(N)=O)ncn2c1=O : call = ?
## Result true

* * *

Recorded viability, T/C values for a group of compounds are listed next.
Test system: NCI-H211 tumor spheroids, viability percent test/control
Assay: Anticancer human tumor NCI-H211 cell line growth inhibition;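 further: spheroids exposed to agents for seven days before readout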
Settings: second compound 30 pM; first compound 0.3 µM; hits give low values; spheroids with HUVEC and MSC
The figure you give is taken to be in %; do not add the unit.

CNCc1ccc(-c2cc(-c3nc(-c4ccc(S(=O)(=O)C(C)C)cc4)cnc3N)on2)cc1 + COc1cc2c(cc1O)CCNC21CSC2c3c(OC(C)=O)c(C)c4c(c3C(COC1=O)N1C(O)C3Cc5cc(C)c(OC)c(O)c5C(C21)N3C)OCO4 : 0.93
O=C(c1cc(Cc2n[nH]c(=O)c3ccccc23)ccc1F)N1CCN(C(=O)C2CC2)CC1 + COc1cc2c(cc1O)CCNC21CSC2c3c(OC(C)=O)c(C)c4c(c3C(COC1=O)N1C(O)C3Cc5cc(C)c(OC)c(O)c5C(C21)N3C)OCO4 : 16.1
Cn1ncnc1[C@H]1c2n[nH]c(=O)c3cc(F)cc(c23)N[C@@H]1c1ccc(F)cc1 + COc1cc2c(cc1O)CCNC21CSC2c3c(OC(C)=O)c(C)c4c(c3C(COC1=O)N1C(O)C3Cc5cc(C)c(OC)c(O)c5C(C21)N3C)OCO4 : 0.66

Okay, now this compound:
## Task Requested read-out: viability, T/C. Entry: Cc1sc2c(c1C)C(c1ccc(Cl)cc1)=NC(CC(=O)Nc1ccc(O)cc1)c1nnc(C)n1-2 (centres undefined) + COc1cc2c(cc1O)CCNC21CSC2c3c(OC(C)=O)c(C)c4c(c3C(COC1=O)N1C(O)C3Cc5cc(C)c(OC)c(O)c5C(C21)N3C)OCO4
## Result 0.42

* * *

System: NCI-H211 tumor spheroids, viability percent test/control
Test: Anticancer human tumor NCI-H211 cell line growth inhibition;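 further: spheroids exposed to agents for seven days before readout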
Conditions: second compound 0.03 µM; first compound 10 µM; hits give low values; spheroids with HUVEC and MSC
Each record is given YES if its reported viability, T/C is strictly below 1%. Records at or above 1% are given NO.

Worked set:
COc1cc(C)[nH]c(=O)c1CN1CCc2c(Cl)cc(C(OC)C3COC3)c(Cl)c2C1=O (stereo unspecified) + CC[C@@]1(O)C(=O)OCc2c1cc1n(c2=O)Cc2cc3c(CN(C)C)c(O)ccc3nc2-1 : NO
Cc1cc(C)c(CNC(=O)c2cc(-c3ccc(CN4CCOCC4)cc3)cc3c2cnn3C2CCCC2)c(=O)[nH]1 + CC[C@@]1(O)C(=O)OCc2c1cc1n(c2=O)Cc2cc3c(CN(C)C)c(O)ccc3nc2-1 : YES
[2H]c1nc(C)nc([2H])c1-c1cc(NC[C@@H](C)c2cccc3c(C(=O)NC)ccnc23)ncn1 + CC[C@@]1(O)C(=O)OCc2c1cc1n(c2=O)Cc2cc3c(CN(C)C)c(O)ccc3nc2-1 : NO

## Task Is viability, T/C of CC1COCCN1c1cc(-c2ccnn2C)c2ccnc(-c3ccn[nH]3)c2n1 (stereo unspecified) + CC[C@@]1(O)C(=O)OCc2c1cc1n(c2=O)Cc2cc3c(CN(C)C)c(O)ccc3nc2-1 strictly below 1%?
## Result YES

## Task Is viability, T/C of CC(C)n1c(=O)n(C)c2cnc3cc(F)c(-c4ccc(OCCCN5CCCCC5)nc4)cc3c21 + CC[C@@]1(O)C(=O)OCc2c1cc1n(c2=O)Cc2cc3c(CN(C)C)c(O)ccc3nc2-1 strictly below 1%?
## Result YES

## Task Is viability, T/C of COc1ccc([C@@H](O)c2cc(-c3ncnc4cc(N5CCOCC5)ccc34)c(F)cc2Cl)nn1 + CC[C@@]1(O)C(=O)OCc2c1cc1n(c2=O)Cc2cc3c(CN(C)C)c(O)ccc3nc2-1 strictly below 1%?
## Result YES

* * *

Tested on: NCI-H211 tumor spheroids, viability percent test/control
Assay: Anticancer human tumor NCI-H211 cell line growth inhibition;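 further: spheroids exposed to agents for seven days before readout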
Conditions: second compound 0.03 µM; first compound 0.316 µM; hits give low values; spheroids with HUVEC and MSC
Protocol: Multicellular complex tumor spheroid response to DNA repair inhibitors in combination with DNA-damaging drugs This study explores the anticancer activities of DNA-damaging drugs and inhibitors of DNA damage repair, both as single agents and in combinations. […] Twenty-six patient-derived or established malignant cell lines were evaluated representing sarcoma, melanoma, small cell lung cancer (SCLC), non-small cell lung cancer (NSCLC), as well as bladder, ovarian and pancreatic cancers. […]
endpoint: viability, T/C (%)
The figure you give is taken to be in %; do not add the unit.

Cc1cc(C)c(CNC(=O)c2cc(-c3ccc(CN4CCOCC4)cc3)cc3c2cnn3C2CCCC2)c(=O)[nH]1 + CC[C@@]1(O)C(=O)OCc2c1cc1n(c2=O)Cc2cc3c(CN(C)C)c(O)ccc3nc2-1 : 1.13
CC(C)n1c(=O)n(C)c2cnc3cc(F)c(-c4ccc(OCCCN5CCCCC5)nc4)cc3c21 + CC[C@@]1(O)C(=O)OCc2c1cc1n(c2=O)Cc2cc3c(CN(C)C)c(O)ccc3nc2-1 : 0.82
COc1cc(C)[nH]c(=O)c1CN1CCc2c(Cl)cc(C(OC)C3COC3)c(Cl)c2C1=O (stereo unspecified) + CC[C@@]1(O)C(=O)OCc2c1cc1n(c2=O)Cc2cc3c(CN(C)C)c(O)ccc3nc2-1 : 1.49
CC1COCCN1c1cc(-c2ccnn2C)c2ccnc(-c3ccn[nH]3)c2n1 (stereo unspecified) + CC[C@@]1(O)C(=O)OCc2c1cc1n(c2=O)Cc2cc3c(CN(C)C)c(O)ccc3nc2-1 : 0.67
COc1ccc([C@@H](O)c2cc(-c3ncnc4cc(N5CCOCC5)ccc34)c(F)cc2Cl)nn1 + CC[C@@]1(O)C(=O)OCc2c1cc1n(c2=O)Cc2cc3c(CN(C)C)c(O)ccc3nc2-1 : 0.9

Okay, now this compound:
## Task NCI-H211 tumor spheroids, viability percent test/control / viability, T/C / [2H]c1nc(C)nc([2H])c1-c1cc(NC[C@@H](C)c2cccc3c(C(=O)NC)ccnc23)ncn1 + CC[C@@]1(O)C(=O)OCc2c1cc1n(c2=O)Cc2cc3c(CN(C)C)c(O)ccc3nc2-1 : value?
## Result 1.33

* * *

Tested on: NCI-H211 tumor spheroids, viability percent test/control
Test: Anticancer human tumor NCI-H211 cell line growth inhibition;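 further: spheroids exposed to agents for seven days before readout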
Settings: second compound 0.3 µM; first compound 0.0949 µM; hits give low values; spheroids with HUVEC and MSC
Experimental: Multicellular complex tumor spheroid response to DNA repair inhibitors in combination with DNA-damaging drugs This study explores the anticancer activities of DNA-damaging drugs and inhibitors of DNA damage repair, both as single agents and in combinations. […] Twenty-six patient-derived or established malignant cell lines were evaluated representing sarcoma, melanoma, small cell lung cancer (SCLC), non-small cell lung cancer (NSCLC), as well as bladder, ovarian and pancreatic cancers. […]
endpoint: viability, T/C (%)
The figure you give is taken to be in %; do not add the unit.

## Task Requested read-out: viability, T/C. Entry: CNCc1ccc(-c2cc(-c3nc(-c4ccc(S(=O)(=O)C(C)C)cc4)cnc3N)on2)cc1 + CC[C@@]1(O)C(=O)OCc2c1cc1n(c2=O)Cc2cc3c(CN(C)C)c(O)ccc3nc2-1
## Result 1.37

## Task Requested read-out: viability, T/C. Entry: Cn1ncnc1[C@H]1c2n[nH]c(=O)c3cc(F)cc(c23)N[C@@H]1c1ccc(F)cc1 + CC[C@@]1(O)C(=O)OCc2c1cc1n(c2=O)Cc2cc3c(CN(C)C)c(O)ccc3nc2-1
## Result 1.1

## Task Requested read-out: viability, T/C. Entry: Cc1sc2c(c1C)C(c1ccc(Cl)cc1)=NC(CC(=O)Nc1ccc(O)cc1)c1nnc(C)n1-2 (centres undefined) + CC[C@@]1(O)C(=O)OCc2c1cc1n(c2=O)Cc2cc3c(CN(C)C)c(O)ccc3nc2-1
## Result 0.83

## Task Requested read-out: viability, T/C. Entry: O=C(c1cc(Cc2n[nH]c(=O)c3ccccc23)ccc1F)N1CCN(C(=O)C2CC2)CC1 + CC[C@@]1(O)C(=O)OCc2c1cc1n(c2=O)Cc2cc3c(CN(C)C)c(O)ccc3nc2-1
## Result 1.03

Values were extracted from PubChem BioAssay AID1845209.
